Record type: IC50 measurement. Applies to: Glyceraldehyde-3-phosphate dehydrogenase (Homo sapiens)

O=C(CSc1nnc[nH]1)NCCOc1ccccc1 = > 100 µM (not active)
O=C1C(Cl)=C(N2CCOCC2)C(=O)N1c1cccc(C(F)(F)F)c1 = > 50 µM (inconclusive)
CC(C)(C)NC(=O)c1cc(-c2ccc(Cl)cc2Cl)n[nH]1 = > 100 µM (not active)
COC(=O)c1cc(-c2ccc(OC)cc2)[nH]n1 = > 100 µM (not active)
CN1CCN(C2=C(Cl)C(=O)N(c3ccc(C(F)(F)F)cc3)C2=O)CC1 = > 50 µM (inconclusive)

Now for a further compound.
[in] Specify measured IC50 for `O=S(=O)(Nc1ccncn1)c1ccccc1` .
[out] > 100 µM (not active)

====

system: Calpain-2 catalytic subunit (Sus scrofa, UniProt P43367)
Sequence (P43367 whole entry): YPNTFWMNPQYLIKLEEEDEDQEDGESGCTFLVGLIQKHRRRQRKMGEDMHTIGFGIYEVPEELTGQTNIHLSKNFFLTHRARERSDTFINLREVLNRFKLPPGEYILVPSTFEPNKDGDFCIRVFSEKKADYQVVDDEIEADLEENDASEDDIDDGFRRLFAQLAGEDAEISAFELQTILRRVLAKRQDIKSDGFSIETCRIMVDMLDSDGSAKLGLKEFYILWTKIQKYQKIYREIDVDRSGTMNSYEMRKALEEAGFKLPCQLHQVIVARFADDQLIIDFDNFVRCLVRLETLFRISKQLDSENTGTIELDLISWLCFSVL
experimental-details: m-calpain protease blockers, concentration series – biochemical, fluorogenic peptide substrate, dose response (AID 1420)
Type: functional
I'd appreciate it if you could supply IC50 values for the items below.

O=C(c1cc(COc2c(F)cccc2F)on1)N1CCC(c2ccccc2Cl)C1 (stereo unspecified) = 4.48 µM (not active)
COc1ccc(-c2nnc(SC(C)C(=O)Nc3cccc(Cl)c3)o2)cc1 (stereo unspecified) = 11.7 µM (not active)
Cc1ccc(C2CCN(C(S)=Nc3cccc(C)c3)C2)cc1 (stereo unspecified) = 9.72 µM (not active)
CCOc1ccccc1Cn1c(=O)sc2ccccc21 = 13.1 µM (not active)
CC(Sc1nnc(-c2ccc(O)cc2)o1)C(=O)Nc1cccc2ccccc12 (stereo unspecified) = < 0.4 µM (not active)

Okay, here is my list. What is IC50 for each of these?
1. CC(C)N(Cc1nc(-c2ccccc2)no1)C(=O)CCCN1C(=O)c2ccccc2C1=O
2. N#CC(c1cccc(Cl)c1)c1ccc2c(C(F)(F)F)cc(C(F)(F)F)nc2n1 (stereo unspecified)
3. Cc1ccc(C(=O)Oc2cccc(-n3cnnn3)c2)cc1
4. COc1cccc(C2CC(c3ccccc3OC)n3nc(N)nc3N2)c1 (stereo unspecified)
5. Cc1cccc(OCCNc2ccc([N+](=O)[O-])cn2)c1
6. O=C1c2cccc(Sc3ccccc3)c2C(=O)c2c(Sc3ccccc3)cccc21

[out]
> 50 µM (not active)
6.77 µM (not active)
10.5 µM (not active)
> 50 µM (not active)
> 50 µM (not active)
6.16 µM (not active)

Okay, here is my list. What is IC50 for each of these?
1. COc1ccccc1NC(=O)/C(=C/c1cccs1)NC(=O)c1ccco1
2. Fc1cccc(Cl)c1CSc1ccc(-c2cccnc2)nn1
3. CCCC(=O)Nc1ccc(Sc2ccc([N+](=O)[O-])cc2)cc1
4. CC(=O)Nc1ccccc1C(=O)C(=O)Nc1cccc(C(=O)NCC2CCCO2)c1 (stereo unspecified)
5. Cn1c(=O)n(C)c2cc([N+](=O)[O-])c(N3CCN(CCO)CC3)cc21

[out]
1. 26 µM (not active)
2. 29.7 µM (not active)
3. 10.7 µM (not active)
4. 7.39 µM (not active)
5. 7.45 µM (not active)

====

system: UniProt P41145
Sequence (P41145 whole entry): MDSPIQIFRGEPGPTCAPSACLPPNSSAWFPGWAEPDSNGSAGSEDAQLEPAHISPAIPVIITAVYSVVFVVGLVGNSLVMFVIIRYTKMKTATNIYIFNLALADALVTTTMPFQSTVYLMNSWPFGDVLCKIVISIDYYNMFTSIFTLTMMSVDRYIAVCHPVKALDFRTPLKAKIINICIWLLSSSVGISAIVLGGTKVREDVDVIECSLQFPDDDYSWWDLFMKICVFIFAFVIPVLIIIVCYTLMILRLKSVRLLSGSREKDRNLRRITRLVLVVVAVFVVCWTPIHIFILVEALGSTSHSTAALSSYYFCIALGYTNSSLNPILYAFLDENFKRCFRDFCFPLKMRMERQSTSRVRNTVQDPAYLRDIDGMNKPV
Assay type: functional
attribute-measured: IC50

[in] Provide the reported IC50 (system: UniProt P41145) for `C/C(=N\NC(=O)Cc1ccc(Cl)cc1)c1ccccn1`
[out] > 32 µM

====

experimental-details: P. falciparum Dd2 growth inhibitors, dose response, SYBR Green, cherry-picked samples (AID 1159567)
Assay type: functional, cell-based
The source made the active and inactive calls.
attribute-measured: AC50

Check out these entries, answers already filled in.
CCC(=O)N1CC2(C1)CN(S(=O)(=O)c1ccccc1)[C@@H](CO)c1[nH]c3cc(OC)ccc3c12 = 5.43 µM (active)
CO[C@H]1CN(C)C(=O)c2cc(NC(=O)c3nc4ccccc4s3)ccc2OC[C@H](C)NC[C@@H]1C = 13.5 µM (active)

Okay, here is my list. What is AC50 for each of these?
1. OC[C@@H]1[C@H](c2ccc(-c3ccc(F)cc3)cc2)[C@@H](CNC2CCCC2)N1CCC(F)(F)F
2. C[C@H]1CN([C@@H](C)CO)C(=O)c2cc(NC(=O)Nc3cccc4ccccc34)ccc2O[C@@H]1CN(C)Cc1ccc(Oc2ccccc2)cc1

[out]
1. 0.401 µM (active)
2. 7.39 µM (active)

====

Record type: AC50 measurement. Applies to: UniProtKB P11712
Sequence (P11712 whole entry): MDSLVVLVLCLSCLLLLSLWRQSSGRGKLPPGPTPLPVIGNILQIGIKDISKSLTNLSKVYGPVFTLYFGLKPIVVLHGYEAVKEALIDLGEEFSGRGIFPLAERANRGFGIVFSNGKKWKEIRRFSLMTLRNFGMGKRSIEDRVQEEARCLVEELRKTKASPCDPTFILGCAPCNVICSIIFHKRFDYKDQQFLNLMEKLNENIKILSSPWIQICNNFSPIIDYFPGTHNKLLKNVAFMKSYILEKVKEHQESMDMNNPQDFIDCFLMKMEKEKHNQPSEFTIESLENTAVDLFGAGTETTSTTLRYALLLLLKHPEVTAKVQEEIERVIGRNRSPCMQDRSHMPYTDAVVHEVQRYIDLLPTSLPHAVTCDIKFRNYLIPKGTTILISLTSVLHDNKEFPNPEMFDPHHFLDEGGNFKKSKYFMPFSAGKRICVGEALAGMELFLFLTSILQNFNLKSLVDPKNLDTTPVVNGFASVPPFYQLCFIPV

CCCCC[C@H](O)c1cccc(OCc2ccc3ccccc3n2)c1 = 31.6 µM (inconclusive)
CN(C)c1nc2c(c(=O)[nH]c(=O)n2C)n1Cc1ccccc1Br = 0.0708 µM (inconclusive)
COc1ccc(CC(NC(C)=O)C(=O)NC2CCN(C(=O)Nc3ccc(Cl)cc3)CC2)cc1OC (stereo not given) = 12.6 µM (inconclusive)
CN1C(=O)C(=C(N)COc2ccccc2)C(=O)N(C)C1=O = 14.1 µM (inconclusive)
CCOC(=O)CN(C(=O)CCC(=O)Nc1cc(C)on1)C(C(=O)NC1CCCC1)c1cccnc1 (stereo not given) = 17.8 µM (inconclusive)

Okay, here is my list. What is AC50 for each of these?
1. O=[N+]([O-])c1cc(Cc2cc([N+](=O)[O-])c3cccnc3c2O)c(O)c2ncccc12
2. OC(CNCc1ccc(F)cc1)(c1ccc(F)cc1)c1ccc(F)cc1
3. O=C(O)c1ccccc1C1c2ccccc2Oc2ccccc21
4. Cn1c(=O)c(CCc2ccccc2)nc2cncnc21

[out]
["5.01 µM (inconclusive)", "12.6 µM (inconclusive)", "3.98 µM (inconclusive)", "31.6 µM (inconclusive)"]

[in] Specify measured AC50 for `Cc1ccc(-n2c(SCC(=O)N3CCOCC3)nnc2-c2cccnc2)cc1` .
[out] 17.8 µM (inconclusive)

====

experimental-details: viability of PTEN-deleted HCT116 cells – cell-based, HCT116 PTEN knockout, dose response (AID 1047);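 note: HCT116 colon tumor cells with PTEN knocked out; cells exposed to compound for 60 hours before readout; potency for loss of cell viability measured by luminescence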
Type: functional
Activity calls are given as the source filed them.
I'd appreciate it if you could supply EC50 values for the items below.

Check out these entries, answers already filled in.
Cc1nc2c(=O)n(C)c(=O)nc-2n(C)n1 = 0.821 µM (active)
CCC(C)NC(=O)c1c(N)n(/N=C/c2ccccn2)c2nc3ccccc3nc12 (stereo not given) = 32.3 µM (active)
CCN(CC)C(=O)CCCOc1ccc(Cl)cc1Cl = 137 µM (active)
O=C(N/N=C/c1ccc(Cl)cc1)c1cc2c(s1)-c1ccccc1CC2 = 9.47 µM (active)

[in] Specify measured EC50 for `c1cncc(-c2nnc(-c3cccnc3)nn2)c1` .
[out] 9.23 µM (active)

====

I'd appreciate it if you could supply AC50 values for the items below.
system: Cytochrome P450 2C19 (Homo sapiens)
Sequence (P33261 whole entry): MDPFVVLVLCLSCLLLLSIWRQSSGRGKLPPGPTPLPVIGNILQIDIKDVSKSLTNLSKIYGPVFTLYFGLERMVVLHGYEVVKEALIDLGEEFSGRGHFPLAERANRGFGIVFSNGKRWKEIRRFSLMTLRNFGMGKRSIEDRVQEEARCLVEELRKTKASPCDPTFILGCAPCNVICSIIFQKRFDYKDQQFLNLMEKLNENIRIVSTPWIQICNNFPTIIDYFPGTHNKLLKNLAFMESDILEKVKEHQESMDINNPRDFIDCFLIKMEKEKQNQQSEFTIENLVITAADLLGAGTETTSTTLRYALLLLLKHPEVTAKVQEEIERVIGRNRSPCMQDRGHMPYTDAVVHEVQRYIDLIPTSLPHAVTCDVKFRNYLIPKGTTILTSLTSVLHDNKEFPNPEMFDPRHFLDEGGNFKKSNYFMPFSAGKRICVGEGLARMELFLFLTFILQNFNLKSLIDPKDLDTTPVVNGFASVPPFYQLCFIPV
experimental-details: Cytochrome panel assay with activity outcomes. Panel member name: p450-cyp2c19 Compounds with AC50 equal or less than 10 uM are considered active
Assay type: functional
condition: read-out: AC50

Cc1ccc(Oc2nc(-c3ccccc3)ncc2S(C)(=O)=O)cc1 = 3.16 µM (inconclusive)
Cc1ccc(-n2c(SCC(=O)N3CCOCC3)nnc2-c2cccnc2)cc1 = 22.4 µM (inconclusive)
CS(=O)(=O)Nc1cccc(-c2cc(NCc3ccccc3)ncn2)c1 = 39.8 µM (inconclusive)
Cc1ccc(C(=O)C2C(=O)c3ccccc3C2=O)cc1 = 22.4 µM (inconclusive)
CCOC(=O)c1ccc(N2C(=O)CC(Nc3ccc(CCO)cc3)C2=O)cc1 (stereo unspecified) = 8.91 µM (inconclusive)

[in] Specify measured AC50 for `CCc1ccc(-c2ccc(C(=O)C(F)(F)F)[nH]2)cc1` .
[out] 5.01 µM (inconclusive)

====

Test system: Streptococcus
experimental-details: GAS UMAA2166 growth inhibition – luminescence, BacTiterGlo, counter-screen for streptokinase expression inhibitor project, dose response (AID 1915);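 note: potency for reduction of bacterial viability or growth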
Format: functional, organism-based
Active and inactive are the calls of the source.
I'd appreciate it if you could supply EC50 values for the items below.

Cc1cc(NC(=O)c2c(F)cccc2Cl)n(-c2nc3ccccc3[nH]2)n1 = 7.12 µM (active)
CCC(CC)C1=NN2C(=N)/C(=C\c3c(C)[nH]c4ccccc34)C(=O)N=C2S1 = 53 µM (active)

Now for a further compound.
[in] Specify measured EC50 for C=CCn1c(COc2ccccc2)nnc1SC(C)C(=O)N/N=C/c1cc(Cl)ccc1O (stereo not drawn) .
[out] 8.01 µM (active)

====

system: Zinc finger protein mex-5 (Caenorhabditis elegans, UniProt Q9XUB2)
Sequence (Q9XUB2 whole entry): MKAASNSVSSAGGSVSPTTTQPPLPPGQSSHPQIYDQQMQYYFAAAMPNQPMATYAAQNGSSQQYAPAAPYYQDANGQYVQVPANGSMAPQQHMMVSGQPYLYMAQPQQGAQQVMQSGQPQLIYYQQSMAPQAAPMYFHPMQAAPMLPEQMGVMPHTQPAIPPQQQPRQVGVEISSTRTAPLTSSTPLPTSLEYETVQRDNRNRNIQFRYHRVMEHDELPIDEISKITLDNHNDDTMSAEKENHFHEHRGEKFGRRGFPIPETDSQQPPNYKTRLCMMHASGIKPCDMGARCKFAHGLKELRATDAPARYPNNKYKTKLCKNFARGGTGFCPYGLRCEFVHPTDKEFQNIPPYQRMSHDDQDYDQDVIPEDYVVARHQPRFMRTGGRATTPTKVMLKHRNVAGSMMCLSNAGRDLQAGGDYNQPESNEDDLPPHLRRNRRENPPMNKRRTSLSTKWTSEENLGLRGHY
experimental-details: potency of MEX-5 RNA-binding blockers – biochemical, C. elegans, fluorescence polarization, dose response (AID 1960)
Activity calls are given as the source filed them.
I'd appreciate it if you could supply EC50 values for the items below.

C/N=C1\S/C(=C\c2cn(CC(=O)OC)c3ccccc23)C(=O)N1C = > 300 µM (not active)
Cc1cc(C)c2c(=O)[nH]c(=O)n(Cc3ccccc3)c2n1 = > 300 µM (not active)
CC(=O)Nc1cccc(Oc2nc(-c3ccccn3)nc3ccccc23)c1 = 5.2 µM (active)
O=C(O)c1ccc(-n2cccc2)cc1O = > 300 µM (not active)
N=C(N)N/N=C1C=C/C(=N\NC(N)=S)C=C\1 = 9.73 µM (active)

Now for a further molecule.
[in] Provide the reported EC50 (system: Zinc finger protein mex-5 (Caenorhabditis elegans, UniProt Q9XUB2)) for `Cc1cc(O)c(Oc2cc(C)cc(O)c2O)c(O)c1`
[out] 12.9 µM (active)
